Exercise: state measured RP-LC retention time for each of the molecules provided.
# test.description: gradient 5% acetonitrile 3 min, to 50% in 2 min, to 85% in 15 min, held 3 min, 100 µL/min
# settings: column: Zorbax Extend-C18 2.1 x 50 mm; eluents: water / acetonitrile, 0.1% formic acid
Numbers only, in s.

As a guide, the following entries are already answered.
> print(dat)
                                   molecule       measured.metric  result.number
1  CCOc1ccc(S(=O)(=O)N2CCC(C(=O)NCc3ccccn3)CC2)cc1C  RP-LC retention time            680
2  CCOC(=O)C1CCN(C(=O)c2ccc3c(c2)CCCN3S(=O)(=O)CC)CC1  RP-LC retention time            798
3  CN(CC1CCOC1)C(=O)Nc1ccccc1 (centres undefined)  RP-LC retention time            653
4  Cc1cc(F)ccc1NC(=O)c1cc2n(n1)CC(C)(C(=O)NC1CCCCC1)N(C)C2=O (centres undefined)  RP-LC retention time            776
5  CCCNC(=O)C1CCCN(c2ccc(SCC(=O)Nc3ccccc3Cl)nn2)C1 (centres undefined)  RP-LC retention time            617

# return RP-LC retention time for each item in the list
1. Cc1cccc(NC(=O)c2csc(-c3cn(C)c4ncccc34)n2)c1
2. COc1ccc(OC)c(S(=O)(=O)N2CCCC(C(=O)Nc3ccc(C(N)=O)cc3)C2)c1 (centres undefined)
3. CCOc1ccc2ncc(C#N)c(NCc3ccc(OC)c(OC)c3)c2c1

A)
[1040, 689, 663]
